target: T1, CD3 epsilon homodimer protein (UniProt P07766 23-126); assay: SPR Biacore T200, CD3e homodimer on chip, vs unaltered GLS3000 antibody
T1 construct: also called CD3 (CD3 epsilon)
T1 sequence (P07766 23-126): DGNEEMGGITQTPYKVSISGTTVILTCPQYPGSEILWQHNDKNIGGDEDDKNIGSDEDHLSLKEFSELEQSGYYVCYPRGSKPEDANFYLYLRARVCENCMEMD
Threshold rule: ratio of amounts bound (Z=Y/X) greater than or equal to 0.7 is true (1); below that, false (0).

1) GLS3000 G89E (antibody, name in Kabat numbering, V domains shown, one-arm IgG as m2) VH: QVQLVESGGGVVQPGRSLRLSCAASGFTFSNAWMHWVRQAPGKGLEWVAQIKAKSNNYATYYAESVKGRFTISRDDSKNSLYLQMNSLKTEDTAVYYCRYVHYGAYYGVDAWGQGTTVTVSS VL: DIVMTQSPLSLPVTPGEPASISCRSSQSLVHSNRNTYLHWYQQKPGQAPRLLIYKVSNRFSGVPDRFSGSGSGTDFTLKISRVEAEDVGVYYCEQGTQVPYTFGQGTKLEIK :: false (0)
2) GLS3000 R29G (antibody, name in Kabat numbering, V domains shown, one-arm IgG as m2) VH: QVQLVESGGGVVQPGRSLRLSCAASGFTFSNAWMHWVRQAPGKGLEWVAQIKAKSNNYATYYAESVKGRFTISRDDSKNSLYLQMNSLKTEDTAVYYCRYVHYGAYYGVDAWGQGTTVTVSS VL: DIVMTQSPLSLPVTPGEPASISCRSSQSLVHSNGNTYLHWYQQKPGQAPRLLIYKVSNRFSGVPDRFSGSGSGTDFTLKISRVEAEDVGVYYCGQGTQVPYTFGQGTKLEIK :: false (0)
3) GLS3000 S56H (antibody, name in Kabat numbering, V domains shown, one-arm IgG as m2) VH: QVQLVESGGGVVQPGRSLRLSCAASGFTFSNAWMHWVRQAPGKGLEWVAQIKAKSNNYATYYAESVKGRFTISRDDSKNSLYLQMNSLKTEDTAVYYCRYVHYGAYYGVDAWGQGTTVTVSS VL: DIVMTQSPLSLPVTPGEPASISCRSSQSLVHSNRNTYLHWYQQKPGQAPRLLIYKVSNRFHGVPDRFSGSGSGTDFTLKISRVEAEDVGVYYCGQGTQVPYTFGQGTKLEIK :: true (1)

Below: the item to evaluate.
Prompt: Check if ratio of amounts bound (Z=Y/X) >= 0.7 (inclusive). Item: GLS3000 S27eG (antibody, name in Kabat numbering, V domains shown, one-arm IgG as m2) VH: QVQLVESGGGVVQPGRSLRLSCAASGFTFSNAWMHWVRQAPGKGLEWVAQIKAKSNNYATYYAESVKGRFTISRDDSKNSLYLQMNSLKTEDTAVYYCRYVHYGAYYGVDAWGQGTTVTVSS VL: DIVMTQSPLSLPVTPGEPASISCRSSQSLVHGNRNTYLHWYQQKPGQAPRLLIYKVSNRFSGVPDRFSGSGSGTDFTLKISRVEAEDVGVYYCGQGTQVPYTFGQGTKLEIK
Response: true (1)
